// provenance: patent US20240067639A1

Consider the following compounds; for each one, report its IC50.
- Test system: RAN translation of (G4C2)66-No ATG-GFP in HEK293T cells
- protocol_description: Cell-based assay of RAN translation inhibition (GFP/mCherry reporter)
- protocol_conditions: Homo sapiens, HEK-293T, read-out: RANT IC50
Answers are plain numbers, in µM.

>  <compound>
COc1ccc2c(c1)c1cc3cnccc3c(C)c1n2CCN1CCCCC1 [Compound 316]

>  <test_target>
RAN translation of (G4C2)66-No ATG-GFP in HEK293T cells

>  <IC50 (µM)>
10

$$$$
>  <compound>
Cc1c2ccncc2cc2c3cc(Oc4ccccn4)ccc3n(C)c12 [Compound 305]

>  <test_target>
RAN translation of (G4C2)66-No ATG-GFP in HEK293T cells

>  <IC50 (µM)>
18

$$$$

Dear colleague, could you please provide IC50 for the compounds listed below?
1. Cc1c2ccnc(C(=O)N[C@H](C)CN(C)C)c2cc2c3ccccc3n(C)c12 [Compound 292]
2. COc1ccc2c(c1)c1cc3cnccc3c(C)c1n2CCN1CCOCC1 [Compound 320]

Response line:
1: 13; 2: 1.9
